assay.notes: ATP Cytotoxicity assay (ATPLite) in HEK293-RXFP1 cells
Type: cell-based
condition.label: human, inactive = Maximum response less than 30%, read-out: ATP Tox. EC50 (μM, Max. Resp.): EC50
measure.name: EC50 at 72 h (µM)

>>> reported_value("CCCOc1ccccc1C(=O)Nc1ccccc1C(=O)Nc1cccc(S(=O)(=O)C(F)(F)F)c1")
9.4
>>> reported_value("COc1ccccc1C(=O)Nc1ccccc1C(=O)Nc1cccc(SC(F)(F)F)c1")
3.74

* * *

measurement.target: RXFP1 (Homo sapiens)
Construct: expressed in transfected cells
Sequence (Q9HBX9 1-757): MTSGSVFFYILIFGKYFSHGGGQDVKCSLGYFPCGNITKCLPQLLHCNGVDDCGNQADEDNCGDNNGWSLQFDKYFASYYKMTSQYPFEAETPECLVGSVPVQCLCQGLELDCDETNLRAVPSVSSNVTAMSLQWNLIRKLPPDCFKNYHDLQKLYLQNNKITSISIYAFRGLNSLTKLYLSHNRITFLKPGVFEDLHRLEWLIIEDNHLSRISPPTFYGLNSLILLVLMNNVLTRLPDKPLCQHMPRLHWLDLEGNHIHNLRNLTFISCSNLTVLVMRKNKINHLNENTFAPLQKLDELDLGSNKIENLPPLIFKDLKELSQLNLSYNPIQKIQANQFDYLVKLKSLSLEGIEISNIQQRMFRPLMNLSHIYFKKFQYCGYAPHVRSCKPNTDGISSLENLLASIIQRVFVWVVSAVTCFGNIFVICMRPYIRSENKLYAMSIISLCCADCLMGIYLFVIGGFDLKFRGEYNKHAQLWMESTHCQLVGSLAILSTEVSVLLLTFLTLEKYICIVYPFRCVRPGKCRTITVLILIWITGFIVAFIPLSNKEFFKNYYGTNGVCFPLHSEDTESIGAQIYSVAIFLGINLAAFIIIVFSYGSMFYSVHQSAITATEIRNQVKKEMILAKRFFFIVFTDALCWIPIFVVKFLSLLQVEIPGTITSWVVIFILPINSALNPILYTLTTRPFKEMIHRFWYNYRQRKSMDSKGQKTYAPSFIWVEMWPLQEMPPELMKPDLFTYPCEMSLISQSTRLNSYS
assay.notes: RXFP1 cAMP assay in HEK293-RXFP1 cells (HTRF)
Assay type: cell-based
condition.label: percentage of the maximal receptor activation induced by high concentrations of forskolin; Tables 1-7; read-out: Max Response
Assign classes using reported Emax values and the ranges lo = under 70%, med = from 70% up to 90%, hi = 90% and over, please.

>>> assigned_label("CCOc1ccccc1-c1nc2ccccc2c(=O)n1-c1cccc(-c2nnn[nH]2)c1")
"lo"
>>> assigned_label("O=C(Nc1ccc(F)cc1)c1ccccc1NC(=O)C1CCCCC1")
"med"
>>> assigned_label("O=C(NCc1ccco1)c1ccccc1NC(=O)c1ccccc1NC(=O)C1CCCCC1")
"lo"
>>> assigned_label("C#Cc1cccc(NC(=O)c2ccccc2NC(=O)C2CCCCC2)c1")
"med"
>>> assigned_label("CCOc1ccccc1C(=O)Nc1ccccc1-c1nc2cc(C(F)(F)F)ccc2[nH]1")
"lo"
>>> assigned_label("COc1ccccc1C(=O)Nc1ccccc1C(=O)Nc1cccc(SC(F)(F)F)c1")
"hi"
>>> assigned_label("CCCOc1ccccc1C(=O)Nc1ccccc1C(=O)Nc1cccc(S(=O)(=O)C(F)(F)F)c1")
"hi"
>>> assigned_label("CCOc1ccccc1C(=O)Nc1ccccc1C(=O)Nc1cccc(C(F)(F)F)c1")
"hi"
>>> assigned_label("O=C(Nc1ccccc1C(=O)Nc1cccc(C(F)(F)F)c1)c1ccccc1I")
"med"
>>> assigned_label("CCSc1ccccc1C(=O)Nc1ccccc1C(=O)Nc1cccc(S(=O)(=O)C(F)(F)F)c1")
"hi"
